Recorded pIC50 values (UniProt Q39829) are given below.
Numbers only, as −log10 of the molar value.

INSERT INTO assay_data (givensmiles, reportedvalue) VALUES
  ('O=c1oc2ccccc2c(O)c1/C=C/n1cnc2c(N3CCCCC3)ncnc21', 5.20);

Kindly consider the entry below.
Give its pIC50 value. Item: "O=c1oc2ccccc2c(O)c1/C=C/n1cnc2c(NCc3ccccc3)ncnc21" 4.70

----------
testedSystem: Prostaglandin G/H synthase 1 (Homo sapiens)
Sequence (P23219 whole entry): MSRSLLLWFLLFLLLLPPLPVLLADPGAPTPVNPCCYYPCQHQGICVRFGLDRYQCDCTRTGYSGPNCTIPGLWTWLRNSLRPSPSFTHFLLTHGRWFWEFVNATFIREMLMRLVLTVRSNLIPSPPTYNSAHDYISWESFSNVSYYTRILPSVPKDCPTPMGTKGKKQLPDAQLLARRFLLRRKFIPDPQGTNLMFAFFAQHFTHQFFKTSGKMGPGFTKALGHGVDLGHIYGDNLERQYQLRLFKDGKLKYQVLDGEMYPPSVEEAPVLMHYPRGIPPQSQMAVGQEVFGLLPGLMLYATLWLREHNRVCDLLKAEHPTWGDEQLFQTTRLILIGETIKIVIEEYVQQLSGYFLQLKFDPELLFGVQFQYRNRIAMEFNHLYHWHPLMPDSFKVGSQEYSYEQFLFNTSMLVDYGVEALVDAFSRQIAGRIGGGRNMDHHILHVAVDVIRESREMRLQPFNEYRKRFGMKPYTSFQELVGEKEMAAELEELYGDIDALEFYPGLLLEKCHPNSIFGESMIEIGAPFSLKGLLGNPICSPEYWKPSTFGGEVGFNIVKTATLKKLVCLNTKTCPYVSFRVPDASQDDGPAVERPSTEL
measuredQuantity: IC50

INSERT INTO assay_data (givensmiles, testedsystem, measuredquantity, reportedvalue) VALUES
  ('CCN1C(C)=CC/C1=N/N=C(\C)c1cc2ccccc2oc1=O', 'Prostaglandin G/H synthase 1 (Homo sapiens)', 'IC50', '56 to 167 µM');

Let us examine a further case.
Please give the measured IC50 for this molecule: "C/C(=N\N=C1\CCC(=O)N1C)c1cc2ccccc2oc1=O" 56 to 167 µM

----------
testedSystem: Aldo-keto reductase family 1 member B1 (Bos taurus)
measuredQuantity: pIC50
Give bare numbers, as −log10 of the molar value.

Hi! What's the reported pIC50 for "C/C(=N\Nc1nc(-c2cc3ccccc3oc2=O)cs1)c1ccc(Br)cc1" on Aldo-keto reductase family 1 member B1 (Bos taurus)? 6.96

----------
testedSystem: Tyrosinase (Agaricus bisporus)
Sequence (O42713 whole entry): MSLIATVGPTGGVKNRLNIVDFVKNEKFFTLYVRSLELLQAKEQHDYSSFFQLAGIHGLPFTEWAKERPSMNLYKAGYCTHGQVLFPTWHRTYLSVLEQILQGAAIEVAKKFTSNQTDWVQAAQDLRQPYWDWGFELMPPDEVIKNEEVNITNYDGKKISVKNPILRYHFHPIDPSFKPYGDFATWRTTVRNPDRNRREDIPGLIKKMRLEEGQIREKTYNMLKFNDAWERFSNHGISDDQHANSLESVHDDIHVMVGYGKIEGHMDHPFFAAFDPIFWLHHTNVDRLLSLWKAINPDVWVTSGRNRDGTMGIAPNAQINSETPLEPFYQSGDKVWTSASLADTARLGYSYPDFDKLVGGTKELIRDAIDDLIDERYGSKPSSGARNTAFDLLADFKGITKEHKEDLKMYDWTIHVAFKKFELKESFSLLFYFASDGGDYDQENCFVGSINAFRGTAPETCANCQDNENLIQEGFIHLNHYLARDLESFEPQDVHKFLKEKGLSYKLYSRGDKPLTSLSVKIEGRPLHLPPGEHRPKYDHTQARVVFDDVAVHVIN
measuredQuantity: pIC50
Numbers only, as −log10 of the molar value.

Please look up its pIC50: COc1cc(C2CC(c3cc4ccccc4oc3=O)=NN2c2nc(-c3ccc(Br)cc3)cs2)ccc1OCc1ccccc1 (stereo unspecified) 8.34

----------
testedSystem: Acetylcholinesterase (Homo sapiens, UniProt P22303)
Sequence (P22303 whole entry): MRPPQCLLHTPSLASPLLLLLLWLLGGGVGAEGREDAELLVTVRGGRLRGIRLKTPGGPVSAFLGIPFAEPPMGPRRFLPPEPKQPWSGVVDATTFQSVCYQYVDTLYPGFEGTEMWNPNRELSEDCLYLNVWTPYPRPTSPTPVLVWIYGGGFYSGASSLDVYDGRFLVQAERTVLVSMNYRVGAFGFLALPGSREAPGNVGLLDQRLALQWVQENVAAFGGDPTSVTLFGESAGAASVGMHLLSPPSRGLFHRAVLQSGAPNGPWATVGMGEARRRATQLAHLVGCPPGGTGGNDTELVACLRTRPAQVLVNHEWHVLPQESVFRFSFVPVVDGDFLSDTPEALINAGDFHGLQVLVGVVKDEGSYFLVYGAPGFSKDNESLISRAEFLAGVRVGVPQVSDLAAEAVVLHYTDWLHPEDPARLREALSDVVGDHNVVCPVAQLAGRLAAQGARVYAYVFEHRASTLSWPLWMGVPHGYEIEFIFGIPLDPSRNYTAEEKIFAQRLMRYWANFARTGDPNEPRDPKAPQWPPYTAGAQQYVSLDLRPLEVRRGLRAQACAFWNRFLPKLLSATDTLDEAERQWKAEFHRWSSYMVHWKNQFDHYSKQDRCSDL
measuredQuantity: IC50
Please append the unit to your numeric answer.

Which IC50 value is on record for "O=C(Cc1cc(=O)oc2cc(O)ccc12)NCCCCCCCNC(=O)c1cccc2c(=O)c3ccccc3[nH]c12" ? 5.85 µM

Data credit: ChEMBL document CHEMBL4118289
